# protocol-text: Rat pharmacokinetics (PK) test
# Assay type: in vivo, SD rats
# measurement-parameters: SD, plasma, PO oral gavage (10 mg/kg), read-out: Peak blood concentration C max
# Method: Take experimental mice and apply an appropriate amount of the test compound to them according to the dosage and administration route shown in the figure. […] At the corresponding time point, take 10 μL of rat plasma sample into a centrifuge tube, add 100 μL of methanol:acetonitrile (1:1, v/v), perform […] for 1 min, centrifuged (14000 rpm) for 5 min, and take 50 μL of the supernatant, mixed with water in equal volumes, mixed uniformly by […] and then analyzed. […]
measured-property: Cmax (µg/mL)

molecule: O=C(O)C[S+]([O-])c1cc(NS(=O)(=O)c2ccc(Br)cc2)c2ccccc2c1O (stereo not shown)
measured-property: Cmax
reported-result: 1.55

* * *

# protocol-text: Mouse pharmacokinetics (PK) test
# Type: in vivo, ICR mice
# measurement-parameters: ICR, plasma, IP intraperitoneal injection, 3 mg/kg, read-out: Half-life t 1/2 (converted)

compound: O=C(O)C[S+]([O-])c1cc(NS(=O)(=O)c2ccc(Br)cc2)c2ccccc2c1O (stereo not shown)
half-life, min: 47.4

* * *

# protocol-text: Mouse pharmacokinetics (PK) test
# Assay type: in vivo, ICR mice
# measurement-parameters: ICR, plasma, IP intraperitoneal injection, 3 mg/kg

molecule: O=C(O)C[S+]([O-])c1cc(NS(=O)(=O)c2ccc(Br)cc2)c2ccccc2c1O (stereo not shown) [Compound I-1]
AUC(0-inf) / ng·h/mL: 4420

* * *

# protocol-text: Rat pharmacokinetics (PK) test
# Type: in vivo, SD rats
# measurement-parameters: SD, plasma, PO oral gavage (10 mg/kg), read-out: Half-life t 1/2 (converted)

compound: O=C(O)C[S+]([O-])c1cc(NS(=O)(=O)c2ccc(Br)cc2)c2ccccc2c1O (stereo not shown)
half-life / min: 57.6

Entry source: patent US12151999B2
